- testSystem: UniProtKB Q9NZC2
- Sequence (Q9NZC2 19-230): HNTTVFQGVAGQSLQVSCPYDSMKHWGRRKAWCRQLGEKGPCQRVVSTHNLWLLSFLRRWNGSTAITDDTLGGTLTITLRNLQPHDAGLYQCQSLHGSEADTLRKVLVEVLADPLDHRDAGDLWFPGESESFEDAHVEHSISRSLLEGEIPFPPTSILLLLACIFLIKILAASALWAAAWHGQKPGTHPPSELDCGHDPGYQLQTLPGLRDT
- Sequence (O43914 22-113 partner): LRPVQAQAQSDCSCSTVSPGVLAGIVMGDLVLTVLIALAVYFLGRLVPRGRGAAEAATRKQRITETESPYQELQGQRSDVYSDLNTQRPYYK
- assayNotes: TREM2 activity by cellular Syk phosphorylation (AlphaScreen/AlphaLISA) in TREM2/DAP12-HEK cells, used for Examples 1-305
- Assay type: cell-based
- Set-up: expressed in transfected cells
- conditionSet: HEK293 Cells
pEC50: −log10 of the molar value.
pEC50 for assorted compounds

Reference set, count: 6
>  <compound>
Cc1nc2nc(N3CCO[C@@H](c4cnn(C)c4)C3)nc(C3=CC[C@H](C(F)(F)F)CC3)c2nc1C (single isomer, unassigned)

>  <measValue>
6.30 to 7.30

$$$$
>  <compound>
Cc1cc([C@H]2CN(c3nc(CCC(F)(F)F)c4nc(C)c(C)nc4n3)CCO2)ccn1

>  <measValue>
6.30 to 7.30

$$$$
>  <compound>
Cc1ccc2c(C34CC(C(F)(F)F)(C3)C4)nc(N3CCO[C@@H](c4cnn(C5CC5)c4)C3)nc2n1

>  <measValue>
4.00 to 5.52

$$$$
>  <compound>
Cc1ccc2c(-c3ccc(Cl)cc3F)nc([C@@H]3CCO[C@H](c4cnn(C5CC5)c4)C3)nc2n1

>  <measValue>
5.52 to 6.30

$$$$
>  <compound>
Cc1ccc(-c2nc([C@H]3CCO[C@H](c4ccnc(C)c4)C3)nc3nc(C)c(C)nc23)c(F)c1

>  <measValue>
≥ 7.30

$$$$
>  <compound>
Cc1nc2nc(N3CCO[C@@H](c4cnn(C)c4)C3)nc(N3CCC(F)(F)C3)c2nc1C

>  <measValue>
4.00 to 5.52

$$$$

// pEC50 lookup, compound = Cc1cc([C@@H]2CN(c3nc4nc(C)cnc4c([C@H]4C[C@@H](C(F)(F)F)C4)n3)CCO2)cnn1 (single isomer, unassigned) , result: 6.30 to 7.30

// pEC50 lookup, compound = Cc1cc([C@@H]2C[C@H](c3nc(-c4ccc(F)cc4F)c4nc(C)c(C)nc4n3)CCO2)ccn1 [Example 252] , result: ≥ 7.30

// pEC50 lookup, compound = Cc1cc([C@@H]2C[C@H](c3cc4nc(C)c(C)nc4c(-c4ccc(Cl)cc4F)n3)CCO2)ccn1 (relative stereo) , result: 6.30 to 7.30

// pEC50 lookup, compound = Cc1cc([C@H]2CN(c3nc(C4CC5(C4)CC(F)(F)C5)c4nc(C)c(C)nc4n3)CCO2)ccn1 , result: ≥ 7.30

// pEC50 lookup, compound = Cc1nc2nc(N3CCO[C@@H](c4cnn(C)c4)C3)nc(-c3ccc(F)cn3)c2nc1C , result: 5.52 to 6.30

// pEC50 lookup, compound = C[C@H]1CN(c2cc3c(c(-c4ccc(Cl)cc4F)n2)CN(C)C3=O)CCO1 , result: 5.52 to 6.30

// pEC50 lookup, compound = Cc1nc2nc([C@H]3CCO[C@@H](c4cnn(C5CC5)c4)C3)nc(-c3ccc(F)cc3F)c2nc1C , result: 6.30 to 7.30

// pEC50 lookup, compound = Cc1nc2nc([C@@H]3CCO[C@H](c4cnn(C5CC5)c4)C3)nc(-c3ccc(Cl)cc3F)c2nc1C (single isomer, unassigned) , result: 6.30 to 7.30

// pEC50 lookup, compound = Cc1nc2nc(N3CCO[C@@H](c4cnn(C)c4)C3)nc(-c3ccc(F)c(F)c3F)c2nc1C , result: ≥ 7.30

// pEC50 lookup, compound = Cc1ccc(-c2nc(N3CCO[C@@H](c4cnn(C)c4)C3)nc3nc(C)ccc23)c(F)c1 , result: 6.30 to 7.30

// pEC50 lookup, compound = Cc1cc([C@H]2CN(c3nc4nc(C)c(C)nc4c([C@H]4C[C@H](C(F)(F)F)C4)n3)CCO2)cnn1 , result: ≥ 7.30
